- Test system: normal canines
- experimental protocol: Hemodynamic efficacy in normal canines (pressure-volume loop analysis)
- Type: in vivo, beagle dogs
- condition: i.v. infusion, Dose Rate (μmol/kg/min): CXL-1020 100, (1) 50, (2) 100, (83) 65, (84) 77
reported property: PRSW (% Change from Baseline)

[[record]]
compound = "O=S(=O)(NO)c1ccco1 [Compound 83, N-Hydroxyfuran-2-sulfonamide]"
result = 19.79

[[record]]
compound = "CS(=O)(=O)c1ccccc1S(=O)(=O)NO [CXL-1020, reference compound]"
result = 12.60

[[record]]
compound = "Cc1ccc(S(=O)(=O)NO)o1 [Compound 1, N-Hydroxy-5-methylfuran-2-sulfonamide]"
result = 12

[[record]]
compound = "Cc1ccc(S(=O)(=O)NO)s1"
result = 17.70

[[record]]
compound = "CS(=O)(=O)c1cccc(S(=O)(=O)NO)c1"
result = 12.88


Origin of the recorded values: patent US10245249B2
